# Experimental Details: Rough solubility at room temperature
# Format: physicochemical
# Study Conditions: organic solvent or mixture, thermodynamic from solid, n-Heptane
Outcome Measure: solubility

// O=C1CO[C@H](c2cn(-c3ccc(Br)cc3)nc2-c2ccc(F)cc2)N1CCc1ccc2[nH]c(=O)[nH]c2c1 [Crystal form A] : solubility value = < 2000 µg/mL

----------
# Experimental Details: Rough solubility at room temperature
# Type: physicochemical
# Study Conditions: organic solvent or mixture, thermodynamic from solid, Acetone
Outcome Measure: solubility

// O=C1CO[C@H](c2cn(-c3ccc(Br)cc3)nc2-c2ccc(F)cc2)N1CCc1ccc2[nH]c(=O)[nH]c2c1 [Crystal form A] : solubility value = 6.8 to 20.3 mg/mL

----------
# Experimental Details: Rough solubility at room temperature
# Format: physicochemical
# Study Conditions: organic solvent or mixture, thermodynamic from solid, MeOH
Outcome Measure: solubility

// O=C1CO[C@H](c2cn(-c3ccc(Br)cc3)nc2-c2ccc(F)cc2)N1CCc1ccc2[nH]c(=O)[nH]c2c1 [Crystal form A] : solubility value = 2000 to 6600 µg/mL

----------
# Experimental Details: Rough solubility at room temperature
# Type: physicochemical
# Study Conditions: organic solvent or mixture, thermodynamic from solid, DMF
Outcome Measure: solubility

// O=C1CO[C@H](c2cn(-c3ccc(Br)cc3)nc2-c2ccc(F)cc2)N1CCc1ccc2[nH]c(=O)[nH]c2c1 [Crystal form A] : solubility value = > 41.2 mg/mL

----------
# Experimental Details: Rough solubility at room temperature
# Assay type: physicochemical
# Study Conditions: organic solvent or mixture, thermodynamic from solid, 2-MeTHF
Outcome Measure: solubility

// O=C1CO[C@H](c2cn(-c3ccc(Br)cc3)nc2-c2ccc(F)cc2)N1CCc1ccc2[nH]c(=O)[nH]c2c1 [Crystal form A] : solubility value = 6.9 to 20.7 mg/mL

----------
# Experimental Details: Rough solubility at room temperature
# Assay type: physicochemical
# Study Conditions: organic solvent or mixture, thermodynamic from solid, IPAc
Outcome Measure: solubility

// O=C1CO[C@H](c2cn(-c3ccc(Br)cc3)nc2-c2ccc(F)cc2)N1CCc1ccc2[nH]c(=O)[nH]c2c1 [Crystal form A] : solubility value = < 2 mg/mL

----------
# Experimental Details: Rough solubility at room temperature
# Assay type: physicochemical
# Study Conditions: organic solvent or mixture, thermodynamic from solid, MEK
Outcome Measure: solubility

// O=C1CO[C@H](c2cn(-c3ccc(Br)cc3)nc2-c2ccc(F)cc2)N1CCc1ccc2[nH]c(=O)[nH]c2c1 [Crystal form A] : solubility value = 2000 to 6600 µg/mL

----------
# Experimental Details: Rough solubility at room temperature
# Type: physicochemical
# Study Conditions: organic solvent or mixture, thermodynamic from solid, DMSO
Outcome Measure: solubility

// O=C1CO[C@H](c2cn(-c3ccc(Br)cc3)nc2-c2ccc(F)cc2)N1CCc1ccc2[nH]c(=O)[nH]c2c1 [Crystal form A] : solubility value = > 40.4 mg/mL

----------
# Experimental Details: Rough solubility at room temperature
# Assay type: physicochemical
# Study Conditions: organic solvent or mixture, thermodynamic from solid, ACN
Outcome Measure: solubility

// O=C1CO[C@H](c2cn(-c3ccc(Br)cc3)nc2-c2ccc(F)cc2)N1CCc1ccc2[nH]c(=O)[nH]c2c1 [Crystal form A] : solubility value = < 2100 µg/mL

These entries and their values trace back to patent US12686674B2.
